- System: ATP;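 also: ATP exposure 15 min at 22 °C before imaging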
- assay-details: switch fluorescence ratio, 500 uM ATP over buffer (Cy3 cluster intensity, sum of 5 cycles each) (fold (ratio)); higher = stronger signal-on switching upon ATP binding; sequences stand for … in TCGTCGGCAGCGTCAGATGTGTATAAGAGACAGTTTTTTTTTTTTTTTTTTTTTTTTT…TC
- test-conditions: aptamer strand: ATP DNA aptamer (quencher-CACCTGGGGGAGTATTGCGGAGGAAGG + anchor), 100 nM annealed; ATP concentration: 500 uM
Reported switch fluorescence ratio by item:
test-readout: switch fluorescence ratio

[[record]]
primary_sequence = "TCAAGTTTTT"
test_readout = "switch fluorescence ratio"
observed = 1.01

[[record]]
primary_sequence = "GAAGGGCATC"
test_readout = "switch fluorescence ratio"
observed = 0.989

[[record]]
primary_sequence = "TTTGAAAGAA"
test_readout = "switch fluorescence ratio"
observed = 0.978

[[record]]
primary_sequence = "ACGGGACTAG"
test_readout = "switch fluorescence ratio"
observed = 1.02

[[record]]
primary_sequence = "AACAGGGCGG"
test_readout = "switch fluorescence ratio"
observed = 1.01

[[record]]
primary_sequence = "TGGGTTTATT"
test_readout = "switch fluorescence ratio"
observed = 0.984

[[record]]
primary_sequence = "TAGTTATTGA"
test_readout = "switch fluorescence ratio"
observed = 1.01

[[record]]
primary_sequence = "CGGTTTGTAT"
test_readout = "switch fluorescence ratio"
observed = 0.985

[[record]]
primary_sequence = "GAGTGAGTGG"
test_readout = "switch fluorescence ratio"
observed = 1.02

[[record]]
primary_sequence = "GGGCGGGTGT"
test_readout = "switch fluorescence ratio"
observed = 0.987

[[record]]
primary_sequence = "GTAAATATGG"
test_readout = "switch fluorescence ratio"
observed = 0.987

[[record]]
primary_sequence = "AGGGGGGTCT"
test_readout = "switch fluorescence ratio"
observed = 1.01

[[record]]
primary_sequence = "TTTCAATTTA"
test_readout = "switch fluorescence ratio"
observed = 0.996

[[record]]
primary_sequence = "GACAAGGAGG"
test_readout = "switch fluorescence ratio"
observed = 1.02

[[record]]
primary_sequence = "GCACCTGGAT"
test_readout = "switch fluorescence ratio"
observed = 1.01

[[record]]
primary_sequence = "GATAGGAAAT"
test_readout = "switch fluorescence ratio"
observed = 0.977

[[record]]
primary_sequence = "AAAAAGGTTA"
test_readout = "switch fluorescence ratio"
observed = 0.998

[[record]]
primary_sequence = "TCAAATTAGC"
test_readout = "switch fluorescence ratio"
observed = 0.986

[[record]]
primary_sequence = "GGGGTAAGGA"
test_readout = "switch fluorescence ratio"
observed = 1

[[record]]
primary_sequence = "GGTTGTCTTA"
test_readout = "switch fluorescence ratio"
observed = 0.973

[[record]]
primary_sequence = "GGTGACTTGG"
test_readout = "switch fluorescence ratio"
observed = 1.01

[[record]]
primary_sequence = "AAAGGGACGT"
test_readout = "switch fluorescence ratio"
observed = 0.991

[[record]]
primary_sequence = "AACGGGGTAG"
test_readout = "switch fluorescence ratio"
observed = 0.983

[[record]]
primary_sequence = "GTTGAATTAA"
test_readout = "switch fluorescence ratio"
observed = 0.985

[[record]]
primary_sequence = "TCTGGGGGTT"
test_readout = "switch fluorescence ratio"
observed = 1.02

[[record]]
primary_sequence = "TCGTTTGGGC"
test_readout = "switch fluorescence ratio"
observed = 1.02

[[record]]
primary_sequence = "GGGGTTCGGG"
test_readout = "switch fluorescence ratio"
observed = 0.992

[[record]]
primary_sequence = "AATATAGGGT"
test_readout = "switch fluorescence ratio"
observed = 0.997

[[record]]
primary_sequence = "CAACTCTTTT"
test_readout = "switch fluorescence ratio"
observed = 0.998

[[record]]
primary_sequence = "TTTAGTTGAA"
test_readout = "switch fluorescence ratio"
observed = 0.988

[[record]]
primary_sequence = "AGGCATTTTA"
test_readout = "switch fluorescence ratio"
observed = 0.983

[[record]]
primary_sequence = "AAAGTCATGT"
test_readout = "switch fluorescence ratio"
observed = 1.02

[[record]]
primary_sequence = "TATAAGTGAG"
test_readout = "switch fluorescence ratio"
observed = 1.02

[[record]]
primary_sequence = "AGAAAAAGGC"
test_readout = "switch fluorescence ratio"
observed = 1.02

[[record]]
primary_sequence = "ATTTTGGTTT"
test_readout = "switch fluorescence ratio"
observed = 0.989

[[record]]
primary_sequence = "TTAAGGCTTA"
test_readout = "switch fluorescence ratio"
observed = 1.01

[[record]]
primary_sequence = "TTAGAGGGTT"
test_readout = "switch fluorescence ratio"
observed = 1.01

[[record]]
primary_sequence = "TATTACTATT"
test_readout = "switch fluorescence ratio"
observed = 0.999

[[record]]
primary_sequence = "GGTAGGGCGT"
test_readout = "switch fluorescence ratio"
observed = 1.01

[[record]]
primary_sequence = "ATGCATAGGC"
test_readout = "switch fluorescence ratio"
observed = 0.983

[[record]]
primary_sequence = "TCCATCTTTT"
test_readout = "switch fluorescence ratio"
observed = 0.999

[[record]]
primary_sequence = "GGATTTGGGG"
test_readout = "switch fluorescence ratio"
observed = 0.988

[[record]]
primary_sequence = "GGGTATGGTT"
test_readout = "switch fluorescence ratio"
observed = 0.998

[[record]]
primary_sequence = "TAGCATTCTA"
test_readout = "switch fluorescence ratio"
observed = 1.01

[[record]]
primary_sequence = "GCTGTCTGGT"
test_readout = "switch fluorescence ratio"
observed = 1.02

[[record]]
primary_sequence = "TATCTAGGGG"
test_readout = "switch fluorescence ratio"
observed = 0.981

[[record]]
primary_sequence = "TAGCTGTTTT"
test_readout = "switch fluorescence ratio"
observed = 1.02

[[record]]
primary_sequence = "TTTGGGTTCA"
test_readout = "switch fluorescence ratio"
observed = 0.972

[[record]]
primary_sequence = "ATTGGAGGGG"
test_readout = "switch fluorescence ratio"
observed = 1.01

[[record]]
primary_sequence = "GGGGATTTTT"
test_readout = "switch fluorescence ratio"
observed = 1

[[record]]
primary_sequence = "ATCGGGCTGC"
test_readout = "switch fluorescence ratio"
observed = 1

[[record]]
primary_sequence = "ATATTGGAAT"
test_readout = "switch fluorescence ratio"
observed = 1.02

[[record]]
primary_sequence = "ATGCAAGGCA"
test_readout = "switch fluorescence ratio"
observed = 1.02

